target: NADPH oxidase 2 (Homo sapiens); experiment: NOX2-dependent H2O2 signal modulators, primary screen, NOX inhibitor project, cell-based, HEK293-NOX2, PMA-stimulated, Amplex Red fluorescence (AID 1159); conditions: 45 min, higher = more signal, called active from +8 up or from −8 down; also: test concentration not given here
Label scheme for z-score: lower than 0.8 is not met, 0.8 and above is met.

Exercise: Quick check, z-score >= 0.8? CCOC(=O)C[C@H]1[C@H](OC(=O)Cc2ccc3c(c2)OCO3)[C@@H](NC(=O)c2ccc(-c3ccccc3)cc2)c2cc(OCCCO)ccc2N1C(=O)c1ccc2ccccc2n1
Solution: not met

Exercise: Quick check, z-score >= 0.8? CC1CC/C=C\[C@H]2OC34C=CCN(c5ccc(Cl)cc5)C(=O)[C@H]3N(CCO)C(=O)[C@]4(C)C2C(=O)O1 (stereo partly drawn)
Solution: met

Exercise: Quick check, z-score >= 0.8? CC(C)c1ccc(NN2C(C(O)c3cc(C(F)(F)F)cc(C(F)(F)F)c3)C=CC3C(=O)N(c4ccccc4)C(=O)C32)cc1 (stereo not drawn)
Solution: not met

Exercise: Quick check, z-score >= 0.8? C=CCOC(=O)[C@@H]1[C@H]2C(=O)O[C@H](c3ccccc3)[C@H](c3ccccc3)N2[C@H](c2ccc(OCCOC(=O)[C@@H]3C[C@@H]4C(=O)N5CCC[C@H]5C(=O)N4[C@@H]3c3ccc(O)cc3)cc2)[C@@]12C(=O)Nc1ccc(I)cc12
Solution: met

Exercise: Quick check, z-score >= 0.8? CCCC[C@@H]1C[C@H]1[C@@H](NC(=O)c1ccco1)c1ccc(Cl)cc1
Solution: not met

Exercise: Quick check, z-score >= 0.8? COCCOC(=O)N1C(=O)[C@@]2(c3cc(C#CC4=CCCCC4)ccc31)[C@H](C(=O)Nc1nc3ccccc3s1)[C@H]1C(=O)O[C@H](c3ccccc3)[C@H](c3ccccc3)N1[C@@H]2c1ccc(OCCO)cc1
Solution: met

Exercise: Quick check, z-score >= 0.8? COc1ccc(C(O)C2C=CC3C(=O)NC(=O)C3N2Nc2ccccn2)cc1 (stereo not drawn)
Solution: not met

Exercise: Quick check, z-score >= 0.8? COCCOC(=O)N1C(=O)[C@@]2(c3cc(C#CC4=CCCCC4)ccc31)[C@H](C(=O)N1CCc3cc(OC)c(OC)cc3C1)[C@H]1C(=O)O[C@H](c3ccccc3)[C@H](c3ccccc3)N1[C@@H]2c1ccc(OCCO)cc1
Solution: met

Exercise: Quick check, z-score >= 0.8? COc1cc(OC)c(C(O)C2C=CC3C(=O)NC(=O)C3N2Nc2ccc(Cl)cc2Cl)cc1Br (stereo not drawn)
Solution: not met

Exercise: Quick check, z-score >= 0.8? CO[C@H]1O[C@H](CO)[C@@H](OC(=O)Nc2ccc(Br)cc2)[C@H](OC(=O)c2cc3ccccc3[nH]2)[C@H]1OC(=O)c1cc2ccccc2[nH]1
Solution: not met

Exercise: Quick check, z-score >= 0.8? CN(C)CCCNC(=O)[C@@]1(c2ccc([N+](=O)[O-])cc2)CC(=O)N(C2CCCCC2)[C@@H]1c1ccc(CO)cc1
Solution: met

Exercise: Quick check, z-score >= 0.8? O=C(NCC(F)(F)F)[C@@H]1c2ccccc2C(=O)N(C2CCCCC2)[C@H]1c1ccc(CO)cc1
Solution: not met

====

test: splicing luciferase reporter signal modulators, primary screen, spliceosome inhibition project, cell-based, HEK293, splice +/- reporter (AID 1101); conditions: luminescence, 24 h, higher = more signal, called active from +8 up or from −8 down;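 also: HEK293 cells carrying a splicing-competent luciferase reporter gene; test concentration not given here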
Measured Quantity: z-score
Please give only the number in your answer, with no unit.

For record CCCC[C@@H]1C[C@H]1[C@@H](NC(=O)c1ccco1)c1ccc(Cl)cc1 the listed z-score is -0.659

For record C=CCC(OC(C)=O)[C@@H]1[C@@H](N(Cc2ccc(-c3cccc(C(F)(F)F)c3)o2)C(=O)Cc2ccc(F)cc2)c2cc(OCCCO)ccc2N1C(=O)Cc1ccc(OC)cc1 (stereo not given in full) the listed z-score is -1.59

For record COc1ccc([Si](C)(C)[C@H]2[C@H](CCO)O[C@@]3(C(=O)N(Cc4ccc(N5C(=O)COc6ccccc65)cc4)c4ccccc43)[C@@H]2C)cc1 the listed z-score is -1.15

For record O=C1NC(=O)C2C1C=CC(C(O)C(c1ccccc1)c1ccccc1)N2Nc1ccc(Cl)cc1Cl (stereo not given) the listed z-score is 1.44

For record COCCOC(=O)N1C(=O)[C@@]2(c3cc(C#CC4=CCCCC4)ccc31)[C@H](C(=O)Nc1nc3ccccc3s1)[C@H]1C(=O)O[C@H](c3ccccc3)[C@H](c3ccccc3)N1[C@@H]2c1ccccc1OCCO the listed z-score is -0.823

For record CN(C)CCCNC(=O)[C@@]1(c2ccc([N+](=O)[O-])cc2)CC(=O)N(C2CCCCC2)[C@@H]1c1ccc(CO)cc1 the listed z-score is 0.315

For record O=C1OCCC/C=C\[C@H]2OC34C=CCN(CCN5CCOCC5)C(=O)[C@H]3N(CCCO)C(=O)[C@@H]4C12 (stereo not given in full) the listed z-score is 0.106

For record C[C@@H]1ON(c2cccc(C(=O)OC(C)(C)C)c2)[C@H](c2ccc(Br)cc2)[C@H]1C(=O)N1C(=O)OC[C@H]1Cc1ccccc1 the listed z-score is -0.0916

For record CCCC[C@H]1OB(O)C[C@H]2C1=C(COc1ccccc1)C[C@H]1C(=O)N(C)C(=O)[C@H]12 the listed z-score is 0.377

For record O=C(NCc1ccc(F)cc1)[C@H]1C[C@H]2C(=O)N[C@@H](Cc3ccccc3)C(=O)N2[C@H]1c1ccc(O)cc1 the listed z-score is -0.41

For record CC1CC/C=C\[C@H]2OC34C=CCN(C(C)(C)C)C(=O)[C@H]3N(CCCCCCO)C(=O)[C@@H]4C2C(=O)O1 (stereo not given in full) the listed z-score is -0.0517

For record COC(=O)[C@@]1(Cc2ccc(OC)cc2)[C@H]2c3cc(C(=O)N4CCCC4)n(Cc4ccccc4)c3C[C@H]2CN1C(=O)c1ccccc1 the listed z-score is -1.16

For record CC(C)c1ccc(NN2C(C(O)c3cc(C(F)(F)F)cc(C(F)(F)F)c3)C=CC3C(=O)N(c4ccccc4)C(=O)C32)cc1 (stereo not given) the listed z-score is -0.753

For record C=CCN1C(=O)[C@@]2(O[C@@H](CCO)[C@H]([Si](C)(C)c3ccc(OC)cc3)[C@H]2C)c2cc(NC(=O)c3ccc(OC)cc3)ccc21 the listed z-score is -0.491

For record COC(=O)[C@@]1(Cc2ccc(OC)cc2)[C@H]2c3cc(C(=O)N4CCCC4)n(Cc4ccsc4Br)c3C[C@H]2CN1C(=O)c1ccccc1 the listed z-score is 2.42
